Assignment: determine reported IC50 for the given compounds.
target_or_system: EGFR (Homo sapiens (Human))
protocol_notes: Kinase inhibition, Mobility Shift Assay (EGFR)
Assay type: biochemical

Input line: For the compound O=C(NC1CC1)c1cc(F)ccc1Sc1ccc2c(/C=C/c3cc(OCCN4CCCC4)ccn3)n[nH]c2c1 [Compound I-118] , what IC50 is on record?
Output line: > 60000 nM

Input line: Another compound to check: CNC(=O)c1ccccc1Sc1ccc2c(C#Cc3cccc(OCCN4CCCC4)n3)n[nH]c2c1 [Compound I-24]
Output line: 6000 to 60000 nM

Input line: Okay, and CCNC(=O)c1ccccc1Sc1ccc2c(/C=C/c3ccc(CN4CCCC4)cn3)n[nH]c2c1 [Compound I-73] ?
Output line: 6000 to 60000 nM

Input line: # iterate: CN1CCC(CCOc2ccc(/C=C/c3n[nH]c4cc(Sc5ccccc5C(=O)NC5CC5)ccc34)nc2)CC1 [Compound I-42]
Output line: > 60000 nM

Input line: Thanks! And O=C(NC1CC1)c1ccccc1Sc1ccc2c(/C=C/c3ccc(CCN4CCCC4)cn3)n[nH]c2c1 [Compound I-55] ?
Output line: 6000 to 60000 nM

Input line: Now give it for CCNC(=O)c1ccccc1Sc1ccc2c(/C=C/c3ccc(CN(CC)CC)cn3)n[nH]c2c1 [Compound I-86] too.
Output line: 6000 to 60000 nM

Input line: Do the same for O=C(NC1CC1)c1cc(F)ccc1Sc1ccc2c(/C=C/c3cccc(CCN4CCCC4)n3)n[nH]c2c1 [Compound I-136] please
Output line: > 60000 nM

###

Assignment: determine reported fraction unbound at 2 h, 2 μM for the given compounds.
System: melanin
protocol_notes: Binding capacity of compounds to melanin
Type: in vitro ADME
assay_setup: Sepia officinalis (cuttlefish), melanin suspension (1 mg/mL); 1 mg/mL melanin suspension in PBS pH 7.4, 2 μM compound, 2 h at 37° C.; read-out: Fu % (percentage of free drug, not bound to melanin)

Input line: Identify the measured fraction unbound at 2 h, 2 μM of CN(C)Cc1ccc(/C=C/c2n[nH]c3cc(Sc4ccccc4C(=O)NC4CC4)ccc23)nc1 for melanin.
Output line: 0.01 to 0.05

Input line: For O=C(NC1CC1)c1ccccc1Sc1ccc2c(/C=C/c3ccc(CN4CCCC4)cn3)n[nH]c2c1 then?
Output line: > 0.05

Input line: // next record CNC(=O)c1ccccc1Sc1ccc2c(/C=C/c3cncc(OCCN4CCCC4)c3)n[nH]c2c1
Output line: 0.01 to 0.05

Input line: What do you get for O=C(NC1CC1)c1ccccc1Sc1ccc2c(/C=C/c3cnn(CCN4CCCC4)c3)n[nH]c2c1 ?
Output line: 0.01 to 0.05

###

Kindly supply the reported IC50 values for the records listed here.
target_or_system: EGFR (Homo sapiens (Human), UniProt P00533)
Sequence (P00533 25-1210): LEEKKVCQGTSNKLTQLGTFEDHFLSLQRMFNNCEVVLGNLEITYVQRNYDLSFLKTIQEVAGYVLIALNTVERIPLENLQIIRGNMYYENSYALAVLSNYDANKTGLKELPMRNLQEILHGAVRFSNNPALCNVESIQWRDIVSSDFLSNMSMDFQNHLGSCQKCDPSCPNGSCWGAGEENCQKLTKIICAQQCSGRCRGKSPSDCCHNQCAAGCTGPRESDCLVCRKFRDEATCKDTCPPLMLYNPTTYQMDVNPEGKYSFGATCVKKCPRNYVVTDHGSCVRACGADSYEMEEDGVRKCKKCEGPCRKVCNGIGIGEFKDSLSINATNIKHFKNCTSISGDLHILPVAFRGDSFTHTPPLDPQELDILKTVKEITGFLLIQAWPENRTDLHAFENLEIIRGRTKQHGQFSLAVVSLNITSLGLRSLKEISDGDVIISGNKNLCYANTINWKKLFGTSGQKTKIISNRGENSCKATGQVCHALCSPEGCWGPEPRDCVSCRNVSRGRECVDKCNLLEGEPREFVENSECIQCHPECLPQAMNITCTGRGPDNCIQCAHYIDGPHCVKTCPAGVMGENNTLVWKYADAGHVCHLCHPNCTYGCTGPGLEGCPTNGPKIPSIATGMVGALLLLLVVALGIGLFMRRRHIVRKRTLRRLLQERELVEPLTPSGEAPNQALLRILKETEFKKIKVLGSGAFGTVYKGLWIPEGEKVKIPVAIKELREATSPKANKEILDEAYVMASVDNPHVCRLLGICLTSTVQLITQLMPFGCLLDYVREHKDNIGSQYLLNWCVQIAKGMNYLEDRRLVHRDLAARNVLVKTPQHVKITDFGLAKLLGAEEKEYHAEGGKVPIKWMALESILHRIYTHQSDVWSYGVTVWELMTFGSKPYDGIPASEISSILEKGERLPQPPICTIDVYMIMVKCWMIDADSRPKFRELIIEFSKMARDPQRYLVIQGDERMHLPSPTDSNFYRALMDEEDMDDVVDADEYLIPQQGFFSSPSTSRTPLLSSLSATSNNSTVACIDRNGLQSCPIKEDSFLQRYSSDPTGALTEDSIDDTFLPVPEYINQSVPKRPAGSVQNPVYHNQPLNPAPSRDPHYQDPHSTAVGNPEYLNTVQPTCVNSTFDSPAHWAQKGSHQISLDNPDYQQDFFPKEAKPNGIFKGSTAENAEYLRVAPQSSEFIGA
protocol_notes: Kinase inhibition, Mobility Shift Assay (EGFR)
Assay type: biochemical

Input line: Endpoint output: IC50 of O=C(NC1CC1)c1cccc(F)c1Sc1ccc2c(/C=C/c3cc(CCCN4CCCC4)ccn3)n[nH]c2c1 . Value?
Output line: > 60000 nM

Input line: Try the compound CCN(CC)Cc1ccc(/C=C/c2n[nH]c3cc(Sc4ccccc4C(=O)NC)ccc23)nc1
Output line: 6000 to 60000 nM

Input line: Query CCN(CC)Cc1ccc(/C=C/c2n[nH]c3cc(Sc4ccccc4C(=O)NCC(F)(F)F)ccc23)nc1 next
Output line: 6000 to 60000 nM

Input line: O=C(NC1CC1)c1ccccc1Sc1ccc2c(/C=C/c3ccc(CCCN4CCCC4)cn3)n[nH]c2c1 , same question.
Output line: 6000 to 60000 nM

###

Please respond with reported IC50 for every item in the list.
target_or_system: FLT4 (VEGFR3) (Homo sapiens (Human), UniProt P35916)
Sequence (P35916 25-1363): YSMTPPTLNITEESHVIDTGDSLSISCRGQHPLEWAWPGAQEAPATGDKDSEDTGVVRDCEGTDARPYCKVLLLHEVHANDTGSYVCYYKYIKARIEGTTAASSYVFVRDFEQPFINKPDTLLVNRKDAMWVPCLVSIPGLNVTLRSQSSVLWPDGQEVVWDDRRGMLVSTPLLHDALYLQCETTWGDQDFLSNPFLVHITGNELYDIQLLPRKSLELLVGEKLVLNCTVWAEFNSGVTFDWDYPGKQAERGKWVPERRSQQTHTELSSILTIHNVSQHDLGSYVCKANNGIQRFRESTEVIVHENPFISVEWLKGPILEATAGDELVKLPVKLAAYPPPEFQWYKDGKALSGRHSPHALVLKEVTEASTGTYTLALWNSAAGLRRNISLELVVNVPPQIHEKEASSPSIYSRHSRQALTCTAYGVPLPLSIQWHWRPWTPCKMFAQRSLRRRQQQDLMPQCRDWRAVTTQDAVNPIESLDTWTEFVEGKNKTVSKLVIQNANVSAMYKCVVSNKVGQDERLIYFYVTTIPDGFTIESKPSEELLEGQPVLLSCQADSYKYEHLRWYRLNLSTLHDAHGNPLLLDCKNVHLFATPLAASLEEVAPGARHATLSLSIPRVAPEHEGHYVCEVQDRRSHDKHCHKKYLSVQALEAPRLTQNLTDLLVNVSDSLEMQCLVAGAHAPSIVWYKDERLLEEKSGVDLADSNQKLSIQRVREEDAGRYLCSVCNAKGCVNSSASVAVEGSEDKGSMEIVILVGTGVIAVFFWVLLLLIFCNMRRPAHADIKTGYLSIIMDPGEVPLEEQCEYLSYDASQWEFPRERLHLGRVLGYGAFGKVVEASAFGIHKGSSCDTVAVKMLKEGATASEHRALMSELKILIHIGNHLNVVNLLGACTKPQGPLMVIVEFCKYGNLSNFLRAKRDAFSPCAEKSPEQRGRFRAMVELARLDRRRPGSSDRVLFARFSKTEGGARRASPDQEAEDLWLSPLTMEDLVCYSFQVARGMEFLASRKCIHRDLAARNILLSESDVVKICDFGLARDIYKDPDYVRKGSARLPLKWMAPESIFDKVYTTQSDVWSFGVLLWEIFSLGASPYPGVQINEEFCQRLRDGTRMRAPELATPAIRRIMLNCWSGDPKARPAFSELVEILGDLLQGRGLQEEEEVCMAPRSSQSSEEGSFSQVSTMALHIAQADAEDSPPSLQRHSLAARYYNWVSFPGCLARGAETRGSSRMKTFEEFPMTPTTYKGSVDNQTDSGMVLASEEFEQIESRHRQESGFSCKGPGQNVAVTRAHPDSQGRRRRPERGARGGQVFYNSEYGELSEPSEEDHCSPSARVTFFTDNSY
protocol_notes: Kinase inhibition, Mobility Shift Assay (VEGFR3)
Assay type: biochemical

Input line: Consider the molecule CNC(=O)c1ccccc1Sc1ccc2c(/C=C/c3ccc(O)cn3)n[nH]c2c1 [Compound I-10] and give its measured IC50.
Output line: ≤ 1 nM

Input line: Also check CCNC(=O)c1cc(F)ccc1Sc1ccc2c(/C=C/c3ccc(CN4CCCC4)cn3)n[nH]c2c1 [Compound I-97]
Output line: 1 to 10 nM

Input line: And CNC(=O)c1ccccc1Sc1ccc2c(NC(=O)NCCN3CCN(C)CC3)n[nH]c2c1 [Compound I-31] ?
Output line: > 100 nM

Input line: Also CNC(=O)c1ccccc1Sc1ccc2c(/C=C/c3cccc(OCCN4CCCC4)n3)n[nH]c2c1 [Compound I-17] ?
Output line: 1 to 10 nM

Input line: Continue with CNC(=O)c1ccccc1Sc1ccc2c(Nc3ccc(OCCN4CCCC4)cn3)n[nH]c2c1 [Compound I-30]
Output line: > 100 nM

Input line: Also need CNC(=O)c1c(F)cccc1Sc1ccc2c(/C=C/c3ccc(OCCN4CCCC4)cn3)n[nH]c2c1 [Compound I-36] , thanks.
Output line: 1 to 10 nM

Input line: Then this molecule: CNC(=O)c1ccccc1Sc1ccc2c(/C=C/c3ccc(OCC4CCCN4)cn3)n[nH]c2c1 (centres unmarked) [Compound I-14]
Output line: 1 to 10 nM

Input line: Please give the result for CNC(=O)c1ccccc1Sc1ccc2c(/C=C/c3cnn(CCN4CCCC4)c3)n[nH]c2c1 [Compound I-9] too.
Output line: 1 to 10 nM

###

target_or_system: KDR (VEGFR2) (Homo sapiens (Human), UniProt P35968)
protocol_notes: Kinase inhibition, Mobility Shift Assay (VEGFR2)
Type: biochemical
outcome_measure: IC50

Input line: Entry O=C(NC1CC1)c1cc(F)ccc1Sc1ccc2c(/C=C/c3ccc(CN4CCCC4)cn3)n[nH]c2c1 , system KDR (VEGFR2) (Homo sapiens (Human), UniProt P35968): what IC50 was measured?
Output line: ≤ 1 nM

Input line: Similarly, CCNC(=O)c1cccc(F)c1Sc1ccc2c(/C=C/c3ccc(CN4CCCC4)cn3)n[nH]c2c1 ?
Output line: 1 to 10 nM

Input line: Also CCNC(=O)c1cc(F)ccc1Sc1ccc2c(/C=C/c3cc(CCCN4CCCC4)ccn3)n[nH]c2c1 , if possible.
Output line: 1 to 10 nM

Input line: Next compound up: O=C(NC1CC1)c1cc(F)ccc1Sc1ccc2c(/C=C/c3cc(CN4CCCC4)ccn3)n[nH]c2c1
Output line: 1 to 10 nM

###

target_or_system: VEGFR2 autophosphorylation (pVEGFR2) in HUVEC cells (Homo sapiens (Human), UniProt P35968)
Sequence (P35968 20-1356): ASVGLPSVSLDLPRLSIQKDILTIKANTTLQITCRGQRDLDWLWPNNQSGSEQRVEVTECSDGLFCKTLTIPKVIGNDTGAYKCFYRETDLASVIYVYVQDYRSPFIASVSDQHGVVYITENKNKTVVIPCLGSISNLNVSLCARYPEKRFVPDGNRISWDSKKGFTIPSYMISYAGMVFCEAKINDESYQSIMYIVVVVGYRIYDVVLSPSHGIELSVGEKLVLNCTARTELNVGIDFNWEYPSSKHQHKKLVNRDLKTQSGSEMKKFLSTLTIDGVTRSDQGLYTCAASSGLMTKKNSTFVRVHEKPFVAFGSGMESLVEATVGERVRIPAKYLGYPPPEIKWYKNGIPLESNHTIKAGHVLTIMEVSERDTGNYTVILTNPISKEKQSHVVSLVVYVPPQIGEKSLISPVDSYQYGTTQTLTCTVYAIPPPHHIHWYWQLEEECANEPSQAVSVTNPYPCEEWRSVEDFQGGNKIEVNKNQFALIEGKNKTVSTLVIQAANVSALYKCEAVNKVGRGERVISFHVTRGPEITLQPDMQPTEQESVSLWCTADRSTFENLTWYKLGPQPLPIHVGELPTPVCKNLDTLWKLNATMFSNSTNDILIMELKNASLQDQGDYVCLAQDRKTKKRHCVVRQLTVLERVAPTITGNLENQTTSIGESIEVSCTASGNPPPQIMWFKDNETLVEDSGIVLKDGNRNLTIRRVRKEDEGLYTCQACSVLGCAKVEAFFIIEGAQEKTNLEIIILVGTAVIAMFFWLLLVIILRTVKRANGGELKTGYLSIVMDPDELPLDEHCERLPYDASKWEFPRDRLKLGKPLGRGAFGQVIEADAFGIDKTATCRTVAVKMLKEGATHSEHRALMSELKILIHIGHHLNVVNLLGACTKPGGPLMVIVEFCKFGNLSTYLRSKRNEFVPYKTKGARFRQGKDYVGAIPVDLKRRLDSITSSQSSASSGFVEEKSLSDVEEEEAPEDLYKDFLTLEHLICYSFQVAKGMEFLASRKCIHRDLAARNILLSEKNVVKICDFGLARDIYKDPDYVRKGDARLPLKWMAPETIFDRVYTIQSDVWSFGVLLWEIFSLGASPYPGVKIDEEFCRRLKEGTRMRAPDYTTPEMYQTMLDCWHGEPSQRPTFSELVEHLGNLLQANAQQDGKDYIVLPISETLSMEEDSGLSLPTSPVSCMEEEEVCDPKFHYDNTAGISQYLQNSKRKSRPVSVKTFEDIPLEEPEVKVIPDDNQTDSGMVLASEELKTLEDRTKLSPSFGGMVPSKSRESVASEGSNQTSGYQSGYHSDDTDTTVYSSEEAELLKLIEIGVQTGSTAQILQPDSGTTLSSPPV
protocol_notes: Inhibition of VEGF-induced VEGFR2 autophosphorylation in HUVEC cells (ELISA)
Type: cell-based
assay_setup: 50 ng/ml human VEGF, compound 1 h
Description: Vascular endothelial growth factor receptor 2 (VEGFR2) is a primary receptor for VEGF-induced endothelial cell signaling. After ligand binding, VEGFR2 is autophosphorylated and activated. The main function of signaling from VEGFR2 is to induce vascularization during development and after tissue injury, and to bypass blocked blood vessels. […] This assay measured the ability of the compounds to inhibit VEGF-induced VEGFR2 autophosphorylation (pVEGFR2) in HUVEC cells by using ELISA. […]
Assign IC50 to each entry below.

Input line: For the compound shown here, CN(C)Cc1ccc(/C=C/c2n[nH]c3cc(Sc4ccccc4C(=O)NC4CC4)ccc23)nc1 [Compound I-40] , give the reported IC50.
Output line: ≤ 1 nM

Input line: Then what about the compound CCNC(=O)c1ccccc1Sc1ccc2c(/C=C/c3ccc(CN(CC)CC)cn3)n[nH]c2c1 [Compound I-86] ?
Output line: ≤ 1 nM

Input line: Another compound to check: O=C(NC1CC1)c1ccccc1Sc1ccc2c(/C=C/c3cc(OCCN4CCCC4)ccn3)n[nH]c2c1 [Compound I-110]
Output line: 1 to 5 nM

Input line: What about O=C(NC1CC1)c1ccccc1Sc1ccc2c(/C=C/c3ccc(CCCN4CCCC4)cn3)n[nH]c2c1 [Compound I-59] ?
Output line: ≤ 1 nM

Input line: What about CNC(=O)c1ccccc1Sc1ccc2c(/C=C/c3cc(OCCN4CCCC4)ccn3)n[nH]c2c1 [Compound I-20] ?
Output line: 1 to 5 nM

Input line: Moving on to CCN(CC)Cc1ccc(/C=C/c2n[nH]c3cc(Sc4ccccc4C(=O)NCC(F)(F)F)ccc23)nc1 [Compound I-100]
Output line: ≤ 1 nM

Input line: # iterate: O=C(NC1CC1)c1ccccc1Sc1ccc2c(/C=C/c3ccc(CCN4CCCC4)cn3)n[nH]c2c1 [Compound I-55]
Output line: ≤ 1 nM

Input line: Same thing, different compound: CNC(=O)c1ccccc1Sc1ccc2c(/C=C/c3ccc(OCCN4CCCC4)cn3)n[nH]c2c1 [Compound I-6]
Output line: 1 to 5 nM

Input line: How about this compound: O=C(NC1CC1)c1ccccc1Sc1ccc2c(/C=C/c3ccc(CN4CCCC4)cn3)n[nH]c2c1 [Compound I-41]
Output line: ≤ 1 nM

Input line: Also check CCN(CC)Cc1ccc(/C=C/c2n[nH]c3cc(Sc4ccccc4C(=O)NC4CC4)ccc23)nc1 [Compound I-78]
Output line: ≤ 1 nM

Input line: Entry CCN(CC)Cc1ccc(/C=C/c2n[nH]c3cc(Sc4ccc(F)cc4C(=O)NC4CC4)ccc23)nc1 [Compound I-84] please
Output line: ≤ 1 nM

Input line: Moving on to the next compound: CNC(=O)c1ccccc1Sc1ccc2c(/C=C/c3ccc(OCCN4CCOCC4)cn3)n[nH]c2c1 [Compound I-3]
Output line: ≤ 1 nM

Input line: For CCNC(=O)c1cccc(F)c1Sc1ccc2c(/C=C/c3cccc(CN4CCCC4)n3)n[nH]c2c1 [Compound I-113] then?
Output line: > 5 nM

Input line: Another compound to check: O=C(NC1CC1)c1cc(F)ccc1Sc1ccc2c(/C=C/c3ccc(CN4CCCC4)cn3)n[nH]c2c1 [Compound I-80]
Output line: ≤ 1 nM

Input line: // same read-out, input: CCN(CC)Cc1ccc(/C=C/c2n[nH]c3cc(Sc4cc(F)ccc4C(=O)NC4CC4)ccc23)nc1 [Compound I-83]
Output line: ≤ 1 nM
